- assayRemarks: protein stability index of a GFP-peptide fusion (yeast GPS) (PSI 1-4); higher = more stable; sorted into four equal gates, so the index is relative within each strain
- details: ubr1∆
I'd be grateful if you could share measured protein stability index for these entries.
Numbers only.

Examples with their reported protein stability index follow.
sequenceCode | measurementName | resultNumber
WAEHLSDEVKRRFYKNW [RPL3] | protein stability index | 3.37
TTPVKLGPGIYCDPNTQ [RRP40] | protein stability index | 2.35
SELLARDIFQEDEENSD [RGR1] | protein stability index | 3.27
VTWRTFTGDFLRRVEER [FAS1] | protein stability index | 1.24
GNYIKTENATENDQQDN [LIN1] | protein stability index | 2.61

For each listed entry, give its protein stability index.
1. TFTIQLLKLTKVFIRES [YML103C/NUP188]
2. KTFNKIQSQVFESLYNS [BRR2]
3. HIRRMVPLAMGIVSVSD [RPN1]
4. SLTYKKISLRDICLKLN [RPN3]
5. EIYRISFQLSKIRRAAR [RPS9A]
6. VLGFLQLFHNLISIHSR [YJL039C/NUP192]
7. IIELPNEKFEIELLSLD [SRB4]

### Response
2.69
1.73
1.57
2.05
2.29
2.98
2.68

###

- assayRemarks: protein stability index of a GFP-peptide fusion (yeast GPS) (PSI 1-4); higher = more stable; sorted into four equal gates, so the index is relative within each strain
- details: ubr1∆
measurementName: protein stability index
Give bare numbers.

Known protein stability index results, listed for orientation:
sequenceCode | protein stability index
EAESLLQFHVATYMDND [RPO21] | 2.94
YSPTSPSYSPTSPGYSP [RPO21] | 2.95
LEKDAADCQAELTKTKS [YIL149C/MLP2] | 2.87

Look at each sequence and report its protein stability index.
1. LRYVIMKNPDVEFCGYS [RPC19]
2. RPKCGDCGSALQGISTL [RPL34A]
3. KFNNTQRESQIGAAELN [SNF12]
4. RRFNSSIGRTAQGKEFG [RPL17A]
5. EENSSSNGNNLPLNKPR [RGR1]
6. TQLDKLRPRKDSKDGTT [SMB1]
7. KAIPTFSFGKPFFSSNT [YIL149C/MLP2]
8. ALQNLSQLPITPMTRIS [YGL172W/NUP49]

### Response
[2.87, 1.41, 3.38, 2.89, 3.26, 1.77, 3.01, 1.92]

###

- assayRemarks: protein stability index of a GFP-peptide fusion (yeast GPS) (PSI 1-4); higher = more stable; sorted into four equal gates, so the index is relative within each strain
- details: ubr1∆
Class yes: protein stability index at least 3. Class no: protein stability index below 3.

Observe how each entry below is paired with its result.
sequenceCode | categoryLabel
KIYKLENGERKLYDAKR [YMR129W/POM152] | yes
GKEFGTTPEKPEETPLE [FAS2] | no
ATTGGGLFGNKPNNTAN [YGL172W/NUP49] | yes
KKFNMGKEFEARNLIED [RPC53] | no
NHWRQNKGRAVYINPSG [BRR2] | yes

### Prompt Record VGEKLVVVVLEEPSASI [SIR3] ; criterion: protein stability index no lower than 3. Met?
### Response yes

### Prompt Check if protein stability index >= 3 (inclusive). Item: QDKSKKIMNVTTDSLTK [YMR129W/POM152]
### Response yes

### Prompt Could you verify whether the entry EGNEKLAAVPAAGPASA [RPP2A] shows protein stability index of no less than 3?
### Response no

### Prompt Is it the case that LFGSSNNNNNNNNSNNI [YGL172W/NUP49] has protein stability index reaching or exceeding 3?
### Response no

### Prompt protein stability index >= 3 for LFVISTEISPMAGSQFE [RRP45] ?
### Response no

### Prompt Hello, I need to know if IEKFEQVPDSLDDQIFV [RPN6] has measured protein stability index not below 3. Thanks!
### Response yes

### Prompt I'd appreciate it if you could say whether VPPPPVRPSISFNESQR [RPO21] has protein stability index at least equal to 3.
### Response no

### Prompt State whether the measured protein stability index reaches 3, counting equality as reaching it, for LGFEVKDQALIGTINSI [SIR2]
### Response no

### Prompt Say whether RVIVAGTLDINPDDDYG [FAS1] shows protein stability index of 3 or more.
### Response no

###

- assayRemarks: protein stability index of a GFP-peptide fusion (yeast GPS) (PSI 1-4); higher = more stable; sorted into four equal gates, so the index is relative within each strain
- details: pdr5∆
Dear colleague, classification is by protein stability index, with ranges listed here: b0: < 2; b1: ≥ 2 and < 3; b2: ≥ 3

Check out these entries, answers already filled in.
sequenceCode | categoryLabel
PFETFDHASIRRGYQVY [CYT1] | b1
ELENSSPELKAELRPLQ [RPS7A] | b2
HQSELIIKQTVHPIPDV [YMR129W/POM152] | b1

Moving on to the next sequence.
### Prompt Which of the defined bands does the recorded protein stability index of ILEDFRVIKDFKKLNSK [YMR153W/NUP53] sit within?
### Response b2

###

- assayRemarks: protein stability index of a GFP-peptide fusion (yeast GPS) (PSI 1-4); higher = more stable; sorted into four equal gates, so the index is relative within each strain
- details: doa10∆
measurementName: protein stability index

Consider the reported protein stability index for these sequences:
sequenceCode | protein stability index
NENETRDKVCKQINEAR [PGD1] | 3.14
KNAVVRSKFGGDFLDFQ [ARP7] | 3
YLEELQRKKQSDVLRFL [RPL15A] | 1.38
RNMAEEFEYDDEPDEQG [CYT1] | 3.12
IVTGNLVLDLLTWLSSF [IRR1] | 2.63

Hi team, please reply with protein stability index for each item in this list.
1. VTSKVRNAEFKVSKNST [YMR153W/NUP53]
2. LELPLCPYCYKKRREYF [SIR2]
3. NKYQYSLKQYAGNLITT [SRP68]
4. GEKTLSSLALVFALHKY [SMC4]
5. QIAFDLVSSASQQLLEI [RPN2]
6. LVVIRFGRKNDRQCMIM [DIB1]
7. TGMEPGKTSFFQALGVP [RPP0]

### Response
3.08
2.46
3.23
2.57
2.22
2.4
2.89

Look up protein stability index for the entries below, preserving their order.
1. SPSTSANVPSTATTGKR [RPN4]
2. SLKALASKYNCDKSVCR [RPL40A]
3. EFKSIEIEMKNKLEKLN [SMC4]
4. AKSMAFLKEVLSDLSSP [YML103C/NUP188]
5. DITDGKDYHTLANNVES [RPS18A]

### Response
1. 2.16
2. 3.08
3. 1.68
4. 2.97
5. 3.21

Please give protein stability index for each item listed below.
1. KTFNKIQSQVFESLYNS [BRR2]
2. VVGQLFQIDNDNIRYAT [SMC2]
3. SVDPQSSSTQNVFVILM [DIS3]
4. VAAKWNTSLISLFTYFR [PRP8]
5. ETKSWINESAENFSNGI [MED1]
6. VSLGTSIMAVTFKDGVI [PRE3]

### Response
1: 1.57; 2: 2.67; 3: 2.83; 4: 1.7; 5: 3.04; 6: 3.55

Look at each sequence and report its protein stability index.
1. NDRKQTTVSNDLENSPL [SSN2]
2. GIACAGKGLQSAIDVLD [RPN2]
3. HKYVLTLQLYMVHREFL [RGR1]
4. TTNNNNTNNNNTNNNNN [SWI1]

### Response
1. 2.98
2. 2.15
3. 1.38
4. 3.39

###

- assayRemarks: protein stability index of a GFP-peptide fusion (yeast GPS) (PSI 1-4); higher = more stable; sorted into four equal gates, so the index is relative within each strain
- details: san1∆
Short version: protein stability index at least 3 is yes (1), less is no (0).

### Prompt Check if protein stability index >= 3 (inclusive). Item: PSDVNIDVMKSQIIPLM [SNU114]
### Response no (0)

###

- assayRemarks: protein stability index of a GFP-peptide fusion (yeast GPS) (PSI 1-4); higher = more stable; sorted into four equal gates, so the index is relative within each strain
- details: doa10∆
Label scheme for protein stability index: lower than 3 is N, 3 and above is Y.

Worked examples follow.
sequenceCode | categoryLabel
HIRRMVPLAMGIVSVSD [RPN1] | N
EVTEGQAEATEWAEENA [RPS0B] | N
ITQMRVNDEEEHKQLVA [RPC82] | Y
EAESLLQFHVATYMDND [RPO21] | N
NGITLALIDAGISMFDY [SKI6] | N
VTDSSLLKLLTRLVQLR [GRR1] | N

### Prompt Textbook exercise: given the entry SSIDKKSSILTVLQKNS [YML103C/NUP188] , state whether its protein stability index is greater than or equal to 3.
### Response N

### Prompt Check this sequence for protein stability index at or above 3: QIQLAESELSLLEETQA [SMC4]
### Response N

### Prompt Confirm if protein stability index reported for the sequence LTLDPRYIWRSLKDLSS [RPN3] is 3 or above.
### Response N

### Prompt Form field: protein stability index at least 3? Entry: FNTLVRIMSTRCMMAAQ [DIS3]
### Response N

### Prompt Threshold query (protein stability index >= 3) on EPPGSNTSFSFTKPPAN [YOR098C/NUP1]
### Response Y
